Conditions: in ethyl acetate, 303.15 K
observed.property: solubility (mole fraction)
Give a plain numeric answer without units written out.

Request: Query: solubility (mole fraction); subject: Cc1nc2n(c(=O)c1CCN1CCC(c3noc4cc(F)ccc34)CC1)CCCC2O (stereo unspecified)
Response: 0.000164

---

Settings: in ethyl acetate, 288.15 K
observed.property: solubility (mole fraction)
// response body must contain only the number

Request: Please report the recorded solubility (mole fraction) for Cc1nc2n(c(=O)c1CCN1CCC(c3noc4cc(F)ccc34)CC1)CCCC2O (stereo unspecified) .
Response: 5.95e-05

---

Conditions: in acetonitrile, 293.15 K
observed.property: solubility (mole fraction)
Just the number, please.

Request: Would you kindly share the measured solubility (mole fraction) for Cc1nc2n(c(=O)c1CCN1CCC(c3noc4cc(F)ccc34)CC1)CCCC2O (stereo unspecified) ?
Response: 3.58e-05

---

Details: in methanol, 328.15 K
observed.property: solubility (mole fraction)

Request: Which measured solubility (mole fraction) value corresponds to Cc1nc2n(c(=O)c1CCN1CCC(c3noc4cc(F)ccc34)CC1)CCCC2O (stereo unspecified) ?
Response: 0.00105

---

Conditions: in 1,4-dioxane, 303.15 K
observed.property: solubility (mole fraction)

Request: Quick one: solubility (mole fraction) of Cc1nc2n(c(=O)c1CCN1CCC(c3noc4cc(F)ccc34)CC1)CCCC2O (stereo unspecified) ?
Response: 0.00115

---

Settings: in n-pentanol, 318.15 K
observed.property: solubility (mole fraction)
Give the value as a plain number.

Request: Suppose we examine the molecule Cc1nc2n(c(=O)c1CCN1CCC(c3noc4cc(F)ccc34)CC1)CCCC2O (stereo unspecified) ; what solubility (mole fraction) value has been reported?
Response: 0.000742

---

Settings: in ethyl acetate, 298.15 K
observed.property: solubility (mole fraction)
Lab note: write the figure by itself, no unit.

Request: Given the entry Cc1nc2n(c(=O)c1CCN1CCC(c3noc4cc(F)ccc34)CC1)CCCC2O (stereo unspecified) , report its measured solubility (mole fraction).
Response: 0.000118

---

Conditions: in THF, 328.15 K
observed.property: solubility (mole fraction)
Output spec: single numeric token, no unit.

Request: For Cc1nc2n(c(=O)c1CCN1CCC(c3noc4cc(F)ccc34)CC1)CCCC2O (stereo unspecified) , what is its reported solubility (mole fraction)?
Response: 0.00391

---

Conditions: in n-hexanol, 323.15 K
observed.property: solubility (mole fraction)
A bare number is all that is needed in reply.

Request: Reported solubility (mole fraction) for Cc1nc2n(c(=O)c1CCN1CCC(c3noc4cc(F)ccc34)CC1)CCCC2O (stereo unspecified) : what is it?
Response: 0.000958

---

Conditions: in n-pentanol, 313.15 K
observed.property: solubility (mole fraction)

Request: Value lookup for solubility (mole fraction); key = Cc1nc2n(c(=O)c1CCN1CCC(c3noc4cc(F)ccc34)CC1)CCCC2O (stereo unspecified)
Response: 0.000553

---

Conditions: in ethanol, 288.15 K
observed.property: solubility (mole fraction)
I only need the number, thanks.

Request: Give the measured solubility (mole fraction) of Cc1nc2n(c(=O)c1CCN1CCC(c3noc4cc(F)ccc34)CC1)CCCC2O (stereo unspecified) .
Response: 6.58e-05

---

Conditions: in n-butyl acetate, 288.15 K
observed.property: solubility (mole fraction)
Write the value as a bare number.

Request: Could you tell me which solubility (mole fraction) is on file for Cc1nc2n(c(=O)c1CCN1CCC(c3noc4cc(F)ccc34)CC1)CCCC2O (stereo unspecified) ?
Response: 5.19e-05

---

Conditions: in n-hexanol, 303.15 K
observed.property: solubility (mole fraction)
Reply with just the number.

Request: Reported solubility (mole fraction), compound Cc1nc2n(c(=O)c1CCN1CCC(c3noc4cc(F)ccc34)CC1)CCCC2O (stereo unspecified) : ____
Response: 0.000244

// data source = BigSolDB 2.1
